TEST_SUMMARY: chemical genetic growth profiling, strain panel (AID 1159580);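 further: tested at 20 µM; growth read once vehicle control cultures reached saturation at 30 °C; 1 = growth at the plate median or of vehicle wells; lower values mean less growth of the strain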
STUDY_CONDITIONS: S. cerevisiae deletion strains, growth OD, locus YDR101C, strain arx1, active compounds read low
Screen size: about 5,500 compounds; about 2,000 (36%) were called active. About 18% were inconclusive and are not listed. Some of the results follow.
Recorded normalized growth for the following compounds
Please state the value as a number alone, without comment.

COMPOUND	normalized growth
CN[C@@H]1[C@H](O)[C@H](NC)[C@H]2O[C@@]3(O)C(=O)C[C@@H](C)O[C@H]3O[C@@H]2[C@H]1O	1.02

// query Look up normalized growth: COc1ccc(C2Sc3ccccc3N(CCN(C)C)C(=O)C2OC(C)=O)cc1 (stereo not drawn)
// result 1.03

// query Look up normalized growth: CC(CCc1ccccc1)NCC(O)c1ccc(O)c(C(N)=O)c1 (stereo not drawn)
// result 0.999

// query Look up normalized growth: CCC(C)[C@H]1O[C@]2(C=C[C@@H]1C)C[C@@H]1C[C@@H](C/C=C(\C)[C@@H](OC3C[C@H](OC)C(O[C@H]4C[C@H](OC)[C@@H](O)[C@H](C)O4)[C@H](C)O3)[C@@H](C)/C=C/C=C3\CO[C@@H]4[C@H](O)C(C)=C[C@@H](C(=O)O1)[C@]34O)O2 (stereo partly drawn)
// result 0.959
